- targetOrTestSystem: wild type CaMKII kinase domain (residues 1–283) (Drosophila, UniProt Q00168 1-283)
- Sequence (Q00168 1-283): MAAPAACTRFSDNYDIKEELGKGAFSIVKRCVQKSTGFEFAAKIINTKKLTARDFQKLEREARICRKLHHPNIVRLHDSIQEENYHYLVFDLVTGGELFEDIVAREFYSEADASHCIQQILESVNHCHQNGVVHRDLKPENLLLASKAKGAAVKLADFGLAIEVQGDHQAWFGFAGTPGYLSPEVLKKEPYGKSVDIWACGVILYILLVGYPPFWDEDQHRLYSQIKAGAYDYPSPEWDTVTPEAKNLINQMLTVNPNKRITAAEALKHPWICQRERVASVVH
- protocolDetails: ITC
Reported dH values follow for various binders
Answer in kcal/mol, number only, no unit symbol.

MBP-dEAG_(long) E793A (domain or fragment, Drosophila, UniProt Q02280 768-820, looked up) VFPKAPKLQASQATLARQDTIDEGGAVDSSPPSRDSRVVIEGAAVSSATVGPS | -16.7

Ask: State its dH: MBP-dEAG_(long) L782A (domain or fragment, Drosophila, UniProt Q02280 768-820, looked up) VFPKAPKLQASQATAARQDTIDEGGEVDSSPPSRDSRVVIEGAAVSSATVGPS
Result: -3.75

Ask: Kindly indicate its recorded dH. Item: MBP-dEAG_(long) I788A (domain or fragment, Drosophila, UniProt Q02280 768-820, looked up) VFPKAPKLQASQATLARQDTADEGGEVDSSPPSRDSRVVIEGAAVSSATVGPS
Result: -10.5

Ask: Provide one value: measured dH of MBP-dEAG_(long) E790A (domain or fragment, Drosophila, UniProt Q02280 768-820, looked up) VFPKAPKLQASQATLARQDTIDAGGEVDSSPPSRDSRVVIEGAAVSSATVGPS
Result: -15.7

Ask: Look up dH of MBP-dEAG_(long) Q785A (domain or fragment, Drosophila, UniProt Q02280 768-820, looked up) VFPKAPKLQASQATLARADTIDEGGEVDSSPPSRDSRVVIEGAAVSSATVGPS and report it.
Result: -18.5
